FYI, the data here is from ChEMBL document CHEMBL1201862.

test system: T47D; assay: NCI tumour cell line growth inhibition, 48 h
Active and inactive are the calls of the source. Cut-off read from the data, not from the text of the source: active = GI50 up to about 1.1 µM and inactive = higher.
Please state which outcome applies, choosing from active, inactive

The following molecules have reported results that may help.
Problem: Which outcome was assigned to `CC(C)OC(=O)[C@@H]1OC(C)(C)O[C@H]1C(=O)OC(C)C` in this test?
Solution: inactive

Problem: Lab log entry: C[N+]1(c2ccccc2)C=C(c2ccccc2)SC1=S (centres undefined) — outcome as called in the assay?
Solution: inactive

Problem: Give the logged outcome of this assay for the following molecule: C=C(CN1CC2C[C@](C(=O)OC)(c3cc4ccccc4[nH]3)C1C(OC)C2OC)S(=O)(=O)c1ccccc1 (some centres undefined)
Solution: inactive

Others:
Problem: Entry COc1cc2cc(C(=O)N3CC(CCl)c4ccc(N(C)C)cc43)[nH]c2c(OC)c1OC (centres undefined) : call = ?
Solution: active

Problem: For `C=CCc1cccc2cc(C(=O)Nc3ccccc3)c(=N)oc12` , what call appears in the results of this test?
Solution: inactive

Problem: What did the test return for CC1CNC(c2ccc(CN3CCC(CCCC4CCN(Cc5ccc(C6=NC(C)CN6)cc5)CC4)CC3)cc2)=N1 (centres undefined) ?
Solution: inactive

Problem: How did this test come out for `C[C@@H]1C[C@H]2[C@@H]3CCC4=CC(=O)C=C[C@]4(C)[C@@]3(Cl)[C@@H](Cl)C[C@]2(C)[C@@]1(O)C(=O)COP(=O)(O)O` ?
Solution: inactive

Problem: Test call, this molecule: `Cc1cc2occ(S(=O)(=O)NC(=O)Nc3ccc(Cl)cc3)c(=O)c2c(=O)o1`
Solution: inactive

Problem: // param item: `N#Cc1c(C#N)c(-c2ccco2)n(-c2ccccc2)c1N` ; yields the recorded call
Solution: inactive
